Values were extracted from the supplement of paper PMC11865577.

Entries and their pull-down binding Z-score
test system: TO-3-N3 (biotin conjugate); assay: pull-down binding Z-score (relative to library population); higher = stronger binding; details: RNA library: Library-2

{"chain sequence": "GAGCUGGGUGGGGUGCCAAGCCU [hsa-mir-6819]", "pull-down binding Z-score": 2.3}
{"chain sequence": "CAAGGGCUCUACUGUCCUUUCAGGAGAGCCCUUG [hsa-mir-4776-2]", "pull-down binding Z-score": -0.245}
{"chain sequence": "GUGGCCCUGAUGGCUAC", "pull-down binding Z-score": -0.362}

====

system: TO-3-N3-2 (biotin conjugate); assay: pull-down binding Z-score (relative to library population); higher = stronger binding; conditions: RNA library: Library-2
Response key: yes (1) means pull-down binding Z-score >= 0.1; no (0) means pull-down binding Z-score < 0.1.

{"chain sequence": "GCAAGGCUGUAGUGUGCACAGCCUUGA [hsa-mir-4452]", "category label": "yes (1)"}
{"chain sequence": "GGCUUUGGCAUCUAUGAAAGCC [hsa-mir-4755]", "category label": "no (0)"}
{"chain sequence": "GCUUGGAGAAAAGC [SHAPE_invitro_SARS-CoV-2_Motif_326]", "category label": "no (0)"}
{"chain sequence": "CACACUGGUGAGGUAACAGGAUCCGGUG [hsa-mir-182]", "category label": "no (0)"}
{"chain sequence": "GACCAGAAAUCAGCCCGAAUGGUU [IAV_invivo_PB1_2_Motif_17+IAV_invivo_PB1_2_Motif_17]", "category label": "no (0)"}
{"chain sequence": "CCCACUCCAAAGUUCACAGAAUGGGUGG [hsa-mir-541]", "category label": "yes (1)"}
{"chain sequence": "GCCUGUGUAGACGGGGACCUGCCCUGCAUGGGCACCCCCUCACUGGC [hsa-mir-6762]", "category label": "yes (1)"}
{"chain sequence": "AAAUUACCAUUUCAUCUUUUAAAUGGGAUUU", "category label": "no (0)"}
{"chain sequence": "GGGCCAGUCUGACCGUUUCUAGGCG [hsa-mir-551a]", "category label": "yes (1)"}
{"chain sequence": "AGUUUCUGGAAUGUCAGAACUUCCAGAAACU [hsa-mir-3199-2]", "category label": "no (0)"}
{"chain sequence": "CAGAGGCAUCGGGUCAG [hsa-mir-4746]", "category label": "yes (1)"}
{"chain sequence": "UGGGGCGCGAUCAAAACAACGUCGGCCCCA", "category label": "yes (1)"}
{"chain sequence": "UGCGAGAAAUGCUUGCA [SHAPE_invitro_SARS-CoV-2_Motif_85]", "category label": "no (0)"}
{"chain sequence": "UUACAGAUCUUUACCAGGAGUUUUCUGUGGUGUAGAUGCUGUAA [SHAPE_invivo_SARS-CoV-2_Motif_187]", "category label": "no (0)"}
